# experiment.summary: molar heat capacity at constant pressure
# condition.label: 309.15 K; 101.33 kPa; Liquid; Large sample (1 g) DSC
The threshold is inclusive: molar heat capacity at constant pressure of exactly 300 J/K/mol counts as Fulfilled; values below receive Not fulfilled.

[[record]]
compound = "CCOCCO"
cat = "Not fulfilled"

[[record]]
compound = "CCCOCCO"
cat = "Not fulfilled"

[[record]]
compound = "CCCCOCCO"
cat = "Not fulfilled"

[[record]]
compound = "CCCOCCOCCO"
cat = "Fulfilled"

[[record]]
compound = "COCCOCCOCCO [2-[2-(2-methoxyethoxy)ethoxy]ethanol]"
cat = "Fulfilled"

[[record]]
compound = "CCCCOCCOCCO"
cat = "Fulfilled"

[[record]]
compound = "CCCCCCCCOCCOCCOCCO [2-[2-[2-(octyloxy)ethoxy]ethoxy]ethanol]"
cat = "Fulfilled"

[[record]]
compound = "COCCOCCO"
cat = "Not fulfilled"

[[record]]
compound = "CCCCCCOCCOCCO"
cat = "Fulfilled"

[[record]]
compound = "COCCOCCOCCOCCO"
cat = "Fulfilled"

